Would you mind telling me the reported growth inhibition of each entry?
- Procedure text: NCI Yeast Anticancer Drug Screen. Data for the rad18 strain (AID 177)
- Reported conditions: S. cerevisiae rad18 mutant growth inhibition; at 33.0 µM; stronger effect = higher value
About 79,000 compounds went through this panel and 15% of them were active in at least one assay; those are over-represented in the sample as a whole.
Answers are plain numbers, in %.

Record summary for CC1=C(C)C(=O)C2=C(OCCO2)C1=O : reported growth inhibition = 6

Record summary for COc1cccc(/C=C2\S/C(=N/Nc3nc(-c4ccc([N+](=O)[O-])cc4)cs3)NC2=O)c1O : reported growth inhibition = 93

Record summary for O=C1Nc2ccc(Br)cc2C1=Nc1cccnc1 : reported growth inhibition = -36

Record summary for CC1CN(/N=C\c2ccc([N+](=O)[O-])o2)C(=O)O1 (centres undefined) : reported growth inhibition = 93

Dear colleague, could you please provide growth inhibition for the compounds listed below?
1. CCC(OC(C)=O)C1CC(C(C)C)CCC1C (centres undefined)
2. O=C(NOC(=O)c1ccc([N+](=O)[O-])cc1)c1ccc(Cl)cc1
3. CCC(=O)C1=C(O)c2cc(OC)ccc2CC1C(=O)OC (centres undefined)
4. CC1C(c2ccccc2)SC(=N)N1C (centres undefined)
5. CC(C)OP(=O)(OC(C)C)C(=NCCO)NNc1ccc([N+](=O)[O-])cc1

Completion:
11
90
8
-3
54

====

- Procedure text: NCI Yeast Anticancer Drug Screen. Data for the mlh1 rad18 strain (AID 175)
- Reported conditions: S. cerevisiae mlh1 rad18 strain growth inhibition; at 5.0 µM (retest, dose inferred, filed as 0.5); stronger effect = higher value
About 79,000 compounds went through this panel and 15% of them were active in at least one assay; those are over-represented in the sample as a whole.
# binarize growth inhibition: threshold 60% inclusive, high side Criterion met, low side Criterion not met

Prompt: Textbook exercise: given the entry C[n+]1c(/C=C/c2ccc(/C=N/NC(=O)c3ccc(C(=O)N/N=C/c4ccc(/C=C/c5cn6ccccc6[n+]5C)cc4)cc3)cc2)cn2ccccc21 , state whether its growth inhibition is greater than or equal to 60%.
Completion: Criterion met

Prompt: Textbook exercise: given the entry CC(C)(CN1CCCCC1)C(=O)CC(SCCS(=O)(=O)O)c1ccccc1 (configuration not stated) , state whether its growth inhibition is greater than or equal to 60%.
Completion: Criterion not met

Prompt: Textbook exercise: given the entry O=C1c2ccccc2C(=O)c2c(O)c(NCCNCCO)cc(O)c21 , state whether its growth inhibition is greater than or equal to 60%.
Completion: Criterion not met

More entries:
Prompt: Textbook exercise: given the entry Cc1c2c(nc3ccccc13)C(=O)c1cccnc1C2=O , state whether its growth inhibition is greater than or equal to 60%.
Completion: Criterion not met

Prompt: Textbook exercise: given the entry NC(=O)NC1C(c2ccccc2)=C1c1ccccc1 , state whether its growth inhibition is greater than or equal to 60%.
Completion: Criterion not met

Prompt: Textbook exercise: given the entry COc1ccc(C(OCC2OC(n3cnc4c(=O)n(Cc5ccccc5[N+](=O)[O-])nnc43)C(O)C2O)(c2ccccc2)c2ccc(OC)cc2)cc1 (configuration not stated) , state whether its growth inhibition is greater than or equal to 60%.
Completion: Criterion not met

Prompt: Textbook exercise: given the entry COc1ccc2nc3cccc([N+](=O)[O-])c3c(NCCNCCO)c2c1 , state whether its growth inhibition is greater than or equal to 60%.
Completion: Criterion met

====

Would you mind telling me the reported growth inhibition of each entry?
- Procedure text: NCI Yeast Anticancer Drug Screen. Data for the wt2 strain (AID 169);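 also: 0% = growth of vehicle-treated yeast cultures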
- Reported conditions: S. cerevisiae wt2 strain growth inhibition; at 1.2 µM; stronger effect = higher value
The panel holds about 79,000 compounds, 15% with a hit somewhere; the sample as a whole holds those more often. The source made the active and inactive calls. Cut-off read from the data, not from the text of the source: active = growth inhibition above about 70%; inactive = the rest.

Record summary for CC(=O)O[C@H]1CC[C@@]2(C)C(=CC[C@@H]3C2CC[C@]2(C)C(=O)NC(=O)CC32)C1 (stereo not given in full) : reported growth inhibition = 8% (inactive)

Record summary for O=C(CCCN1CCC(Nc2ccc(F)cc2)(c2nnnn2C2CCCCC2)CC1)c1ccc(F)cc1 : reported growth inhibition = -6% (inactive)

Record summary for O=C(O)CNC(c1ccccc1)(c1ccccc1)c1ccccc1 : reported growth inhibition = -27% (inactive)

Record summary for CC(C)CCC[C@@H](C)[C@H]1CC[C@H]2[C@@H]3CC[C@H]4C[C@H](N)CC[C@]4(C)[C@H]3CC[C@]12C : reported growth inhibition = 8% (inactive)

Record summary for C/C(=N/NC(=S)Nc1ccccc1C)c1ccccn1 : reported growth inhibition = -6% (inactive)

Record summary for CC(C)=CCC/C(C)=C/CN1C(=O)C=CC1=O : reported growth inhibition = 24% (inactive)

Dear colleague, could you please provide growth inhibition for the compounds listed below?
1. CNC(=S)N/N=C(/C)CCC/C(C)=N/NC(=S)NC
2. OC1(c2ccccc2)C2CC=CC2C1(c1ccccc1)c1ccccc1 (stereo not given)
3. CCCCS/C(=C(/C#N)C(N)=O)c1cc2c([nH]1)CCCC2
4. CC(C)OP(=O)(OC(C)C)C(=NCCO)NNc1ccc([N+](=O)[O-])cc1

Completion:
["16% (inactive)", "-8% (inactive)", "-13% (inactive)", "1% (inactive)"]

====

- Procedure text: NCI Yeast Anticancer Drug Screen. Data for the rad52 strain (AID 147);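 also: 0% = growth of vehicle-treated control cultures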
- Reported conditions: S. cerevisiae rad52 mutant growth inhibition; at 100.0 µM; stronger effect = higher value
This is part of a sample that, as a whole, favours compounds with a hit. Of some 79,000 tested, about 15% had one in any assay.
Would you mind telling me the reported growth inhibition of each entry?
Numbers only, in %.

Record summary for CC(=O)NC(c1nc2cc(C)c(C)cc2[nH]1)c1nc2cc(C)c(C)cc2[nH]1 : reported growth inhibition = 62

Dear colleague, could you please provide growth inhibition for the compounds listed below?
1. CCCCCCCCCCCCCCCCCCN(C)C(COC)COP(=O)([O-])OCC[N+](C)(C)C (stereo not given)
2. CC(/C=C/c1ccc([N+](=O)[O-])o1)=N/N1CC(CN2CCOCC2)OC1=O (stereo not given)
3. O=c1cccccc1[O-].O=c1cccccc1[O-].O=c1cccccc1[O-].[Eu+3]
4. CC1CCN(CCC(=O)c2ccc([N+](=O)[O-])cc2)CC1

Completion:
[97, 98, 97, 40]

====

- Procedure text: NCI Yeast Anticancer Drug Screen. Data for the wt2 strain (AID 169);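 also: 0% = growth of vehicle-treated yeast cultures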
- Reported conditions: S. cerevisiae wt2 strain growth inhibition; at 3.7 µM; stronger effect = higher value
The panel holds about 79,000 compounds, 15% with a hit somewhere; the sample as a whole holds those more often.
Would you mind telling me the reported growth inhibition of each entry?
Numbers only, in %.

Here is how some molecules turned out for growth inhibition.
Record summary for Nc1ccc(S(=O)(=O)Nc2nc3c(c(=O)[nH]2)CCCC3)cc1 : reported growth inhibition = 73

Record summary for COc1ccc2cc(C(C)C(=O)N3CCOC3=O)ccc2c1 (stereo not given) : reported growth inhibition = -41

Record summary for CC1=CC(=O)C=CC1=Nc1cc(Cl)c(O)c(Cl)c1 : reported growth inhibition = -20

Dear colleague, could you please provide growth inhibition for the molecules listed below?
1. CCCNC(=O)OCc1c(COC(=O)NCCC)c(-c2ccc(Cl)c(Cl)c2)n2c1CCC2
2. OC(CC(O)(C(F)(F)F)C(F)(F)F)c1ccc(C(O)CC(O)(C(F)(F)F)C(F)(F)F)cc1 (stereo not given)
3. CCCCN(CCC#N)c1ccc(/C=C/c2ccnc3ccccc23)cc1
4. CC(C)OC(=O)NNc1cc(Cl)ccc1Cl
5. CCN(CC)C(=S)N/N=C(\C)c1ccccc1O

Completion:
-16
17
-12
4
-31

====

- Procedure text: NCI Yeast Anticancer Drug Screen. Data for the CLN2oe strain (AID 163);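 also: 0% = growth of vehicle-only control cultures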
- Reported conditions: S. cerevisiae CLN2oe strain, at 3.7 µM, stronger effect = higher value
About 79,000 compounds went through this panel and 15% of them were active in at least one assay; those are over-represented in the sample as a whole.
Would you mind telling me the reported growth inhibition of each entry?
Give bare numbers, in %.

Here is how some compounds turned out for growth inhibition.
Record summary for COC(=O)C(Cc1c[nH]c2ccccc12)N1CN(C)c2ccccc2C1=O (stereo not given) : reported growth inhibition = 1

Record summary for CCCCCCCCCCCCCCN : reported growth inhibition = 6

Record summary for NC(=S)N/N=C1\c2ccccc2CCC1CCC1(O)CCc2ccccc2C1=O (stereo not given) : reported growth inhibition = 36

Dear colleague, could you please provide growth inhibition for the compounds listed below?
1. CC(C)S(=O)(=O)/C=C\S(=O)(=O)C(C)C
2. C=CCNC1=C2C[C@@H](C)C[C@H](OC)[C@H](O)[C@@H](C)/C=C(\C)[C@H](OC(N)=O)[C@@H](OC)/C=C\C=C(/C)C(=O)NC(=CC1=O)C2=O

Completion:
1. -4
2. -43

====

- Procedure text: NCI Yeast Anticancer Drug Screen. Data for the rad14 strain (AID 159);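 also: 0% = growth of vehicle-treated control cultures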
- Reported conditions: S. cerevisiae rad14 strain growth inhibition; at 3.7 µM; stronger effect = higher value
The panel holds about 79,000 compounds, 15% with a hit somewhere; the sample as a whole holds those more often.
Assay metric: growth inhibition (%)
Answers are plain numbers, in %.

Record summary for CCOC(=O)Nc1ccc(C)c(NC(=O)OCC)c1 : reported growth inhibition = 7

Record summary for NC(=S)N1N=C2c3ccccc3CC[C@@H]2[C@@H]1c1ccccc1 : reported growth inhibition = -33

Record summary for COc1cccc(/C=C2\S/C(=N/Nc3nc(-c4ccc([N+](=O)[O-])cc4)cs3)NC2=O)c1O : reported growth inhibition = 3

Record summary for CS(=O)(=O)O.[Ag] : reported growth inhibition = 99

Record summary for CC1(C)C(O)OC(O)C1(C)C (stereo unspecified) : reported growth inhibition = -2

Record summary for COC(=O)C(Cl)(Cl)N=Nc1c(Cl)cc(Cl)c(C)c1Cl : reported growth inhibition = 59

Record summary for Cc1oc2ccccc2c(=O)c1Cn1nnc2ccccc21 : reported growth inhibition = -1

Record summary for COc1ccccc1NC(=O)c1ccc(Cl)cc1 : reported growth inhibition = -1

Record summary for c1ccc(-c2cc(C3CO3)c3ccccc3n2)cc1 (stereo unspecified) : reported growth inhibition = -4

Record summary for CC1=NN(C(=O)c2ccccc2O)C(=O)/C1=C/c1ccco1 : reported growth inhibition = 15

Dear colleague, could you please provide growth inhibition for the molecules listed below?
1. O=C1CCC(Cc2ccccc2)CN1 (stereo unspecified)
2. C=CC(C)(C)N1C(=O)C(C(C)=O)=C(O)C1Cc1c[nH]c2ccccc12 (stereo unspecified)

Completion:
-1
-3

Dear colleague, could you please provide growth inhibition for the molecules listed below?
1. O=C1C(=O)N(c2ccccc2)[C@@]2(c3ccccc3)C(=Nc3ccccc3)OC(c3ccccc3)=C12
2. c1ccc2nc3c(nc2c1)sc1ccccc13
3. Fc1ccc(Nc2ccc3ccccc3c2)cc1
4. CC(CC/C(=N/O)c1ccccc1)(CC/C(=N\O)c1ccccc1)[N+](=O)[O-] (stereo unspecified)
5. CCCNCC(=O)O[C@]1(CC)C(=O)OCc2c1cc1n(c2=O)Cc2cc3ccccc3nc2-1
6. CC1=C(C)C(=O)C2=C(OCCO2)C1=O

Completion:
1: 1; 2: 21; 3: 2; 4: 1; 5: 0; 6: -1

Dear colleague, could you please provide growth inhibition for the molecules listed below?
1. COc1ccc2cc(C(C)C(=O)N3CCOC3=O)ccc2c1 (stereo unspecified)
2. O=S1(=O)CCC2=CC(C(F)(F)F)=CC(C(F)(F)F)=CN21

Completion:
[-20, 38]

Data provenance is PubChem BioAssay (NCI).
